Target: UniProt:P42336
Sequence (P42336 whole entry): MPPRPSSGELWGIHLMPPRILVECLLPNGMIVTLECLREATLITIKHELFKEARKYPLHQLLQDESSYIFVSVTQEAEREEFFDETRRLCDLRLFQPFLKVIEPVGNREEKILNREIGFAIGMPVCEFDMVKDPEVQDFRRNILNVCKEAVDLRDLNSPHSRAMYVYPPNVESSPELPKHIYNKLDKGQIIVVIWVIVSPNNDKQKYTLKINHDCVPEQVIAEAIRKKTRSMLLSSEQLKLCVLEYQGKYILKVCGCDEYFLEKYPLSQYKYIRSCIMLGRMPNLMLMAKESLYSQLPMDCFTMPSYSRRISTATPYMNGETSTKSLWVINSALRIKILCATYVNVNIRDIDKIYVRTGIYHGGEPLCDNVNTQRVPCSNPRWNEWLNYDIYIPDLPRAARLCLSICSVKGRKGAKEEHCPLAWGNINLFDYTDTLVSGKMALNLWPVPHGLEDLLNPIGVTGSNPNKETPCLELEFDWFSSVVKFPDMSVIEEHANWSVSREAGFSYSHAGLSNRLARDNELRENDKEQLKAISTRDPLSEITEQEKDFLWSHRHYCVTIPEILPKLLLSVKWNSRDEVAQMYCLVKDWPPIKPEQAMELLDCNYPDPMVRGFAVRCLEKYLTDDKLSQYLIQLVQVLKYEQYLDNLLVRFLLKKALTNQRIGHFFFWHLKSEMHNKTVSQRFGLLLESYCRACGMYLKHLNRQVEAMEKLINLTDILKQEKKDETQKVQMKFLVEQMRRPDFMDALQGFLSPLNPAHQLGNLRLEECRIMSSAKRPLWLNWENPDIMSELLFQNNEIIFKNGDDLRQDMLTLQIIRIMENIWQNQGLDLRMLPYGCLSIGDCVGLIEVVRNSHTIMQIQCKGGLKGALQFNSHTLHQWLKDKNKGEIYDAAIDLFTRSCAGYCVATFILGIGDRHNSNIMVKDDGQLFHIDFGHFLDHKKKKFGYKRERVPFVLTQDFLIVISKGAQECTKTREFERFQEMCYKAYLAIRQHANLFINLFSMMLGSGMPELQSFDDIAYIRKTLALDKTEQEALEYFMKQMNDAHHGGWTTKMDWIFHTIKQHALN
Experiment: Kinase Glo Luminescent Kinase Assay (Kglo), assay A
Format: biochemical
Conditions: read-out: Assay A PI3Kα IC50
So I've got a bunch of compounds here, and I need their pIC50 values.
Just the number, please; pIC50 means minus log10 of the concentration in mol/L.

The recorded pIC50 for Cc1ccc(S(=O)(=O)NCC2(CO)CCOCC2)cc1-c1cnc(N)c(-n2cncn2)n1 [Example 127.50] is 6.08

The recorded pIC50 for Cc1cc(-c2nc(-c3cc(S(=O)(=O)NCC(C)(C)N4CCOCC4)ccc3C)cnc2N)ccn1 [Example 129.29] is 6.16

The recorded pIC50 for Cc1ccc(S(=O)(=O)NOCC(C)C)cc1-c1cnc(N)c(-n2cncn2)n1 [Example 112.4] is 7.10

The recorded pIC50 for Cc1ccc(S(=O)(=O)NCCCF)cc1-c1cnc(N)c(-n2cncn2)n1 [Example 127.29] is 6.62

The recorded pIC50 for Cc1ccc(S(=O)(=O)NCCC(C)(C)O)cc1-c1cnc(N)c(-c2cccs2)n1 [Example 119.45] is 6.82

The recorded pIC50 for Cc1ccc(-c2nc(-c3cc(S(=O)(=O)NCCC(C)(C)O)ccc3C)cnc2N)s1 [Example 119.44] is 6.92

The recorded pIC50 for Cc1ccc(S(=O)(=O)NCC2(CO)CCCCC2)cc1-c1cnc(N)c(-n2cncn2)n1 [Example 127.52] is 6.85

The recorded pIC50 for Cc1ccc(S(=O)(=O)NCCC(C)(C)O)cc1-c1cnc(N)c(-c2cnn(CC(F)(F)F)c2)n1 [Example 130] is 6.82

Cited source for all entries: patent US10004732B2
